biological target: Man(a1-2)Man(a1-3)[Man(a1-3)[Man(a1-6)]Man(a1-6)]Man(b1-4)GlcNAc(b1-4)GlcNAc; test: glycan array binding signal (z-score within array); higher = stronger binding; details: glycan notation: IUPAC condensed, linker removed
The sample as a whole holds a higher share of the strongest signals than the screen did.
Some binders, each annotated with its measured glycan array binding signal (z-score).

[
  {
    "Binder": "XL-35 (Xenopus laevis) (protein) MLVHILLLLVTGGLSQSCDPVVIVASKNMVKQLDCDKFRNCKEIKDSNEEAQDGIYTLTSPDGISYQTFCDMTTNGGGWTLVASVHENNMAGKCTIGDRWSSQQGNRADYPEGDGNWANYNTFGSAGGATSDDYKNPGYYDIEAYNLGVWHVPNKTPLSVWRNSSLQRYRTTDGILFKHGGNLFSLYRIYPVKYGIGSCSKDSGPTVPVVYDLGSANLTASFYSPGFRSQFTPGYIQFRPINTEKAALALCPGMKMESCNVEHVCIGGGGYFPEADPRQCGDFAAYDFNGYGTKKFNSAGIEITEAAVLLFYL",
    "glycan array binding signal (z-score)": -0.086
  },
  {
    "Binder": "Nictaba (Nicotiana tabacum), Q94EW1 (protein) MQGQWIAARDLSITWVDNPQYWTWKTVDPNIEVAELRRVAWLDIYGKIETKNLIRKTSYAVYLVFKLTDNPRELERATASLRFVNEVAEGAGIEGTTVFISKKKKLPGELGRFPHLRSDGWLEIKLGEFFNNLGEDGEVEMRLMEINDKTWKSGIIVKGFDIRPN",
    "glycan array binding signal (z-score)": 4.38
  },
  {
    "Binder": "Tulipa lectin C-1 (Tulipa hybrid) (protein) MGMALVVALAVALASTVAGQQNVLLSGNTLANEESLSYGSVKFIMQNDCNLVLYGGGFQSNTASNGKKCTLTLNNNGHLIINDGLTGRVVWRNSNAQNPVGRYAAVLRPAPGTADVAIYGPAIWSTNDEFSYQESGVVPHKLGRETPNLPRMQNLLFSGQTLYGTDGMLSSNDGSTTFELSKCQLSLSLGNEVKWKVAPTVENGKENYCHVRLDHRGHLSLLNDDNVVLFRSIPTNGVEPPIGDYVLIVEKGAGYIYGPPIWNTYDNRRYKVASA",
    "glycan array binding signal (z-score)": -0.179
  },
  {
    "Binder": "AAA (Anguilla anguilla), Q7SIC1 (protein) VIPEGYTQENVAVRGKATQSAQLRGEHAANSEASNAIDGNRDSNFYHGSCTHSSGQANPWWRVDLLQVYTITSVTITNRGDCCGERISGAEINIGQHLASNGVNNPECSVIGSMATGETKTFHCPAPMIGRYVVTYLPTSESLHLCEVEVNVDKPAAA",
    "glycan array binding signal (z-score)": -0.106
  }
]

Just for reference, the supplement of paper PMC8728848 is where these values come from.
